// cross-study collection: pIC50 for cGMP-specific 3',5'-cyclic phosphodiesterase (Homo sapiens, UniProt O76074)
Interpret pIC50 as the negative base-10 log of the concentration measured in mol/L.

INSERT INTO assay_data (compound, measured_quantity, numeric_readout) VALUES
  ('Cc1nc2ccc(F)cc2nc1-c1cc2nc(N3CC[C@@H](F)C3)cc(NCC(C)(C)O)n2n1.Cl', 'pIC50', 6.36);

Sample CCCc1nc(CC)c2c(O)nc(-c3cc(S(=O)(=O)N4CCN(C)CC4)ccc3OCC)nn12 , system: cGMP-specific 3',5'-cyclic phosphodiesterase (Homo sapiens, UniProt O76074). Its pIC50 is 8.10

Lab entry: cGMP-specific 3',5'-cyclic phosphodiesterase (Homo sapiens, UniProt O76074) assay, compound Cl.Cl.O=[N+]([O-])c1ccc2nc(-c3cccnc3)nc(NCc3ccccc3)c2c1 , pIC50 = 8.00

Reported pIC50 (cGMP-specific 3',5'-cyclic phosphodiesterase (Homo sapiens, UniProt O76074)) for entry COc1ccc(C2c3[nH]c4ccccc4c3CC3C(=O)N(C4CCCCC4)C(=O)N32)cc1 (centres undefined) is 8.52

For the compound CN(C)C(=O)CNc1nc2ccc(-c3ccc(F)cc3)nc2n(CC2CCCCC2)c1=O , the measured pIC50 on cGMP-specific 3',5'-cyclic phosphodiesterase (Homo sapiens, UniProt O76074) was 8.46

Measured pIC50 (cGMP-specific 3',5'-cyclic phosphodiesterase (Homo sapiens, UniProt O76074)), entry CN1C(=O)c2c(nc(Cc3ccc(-c4ccccc4)cc3)n2Cc2ccccc2)N2CC3(CCCC3)N=C12 : 6.70

CCOc1ccccc1-c1nc(O)c2nnc(C3CCCC3)n2n1 tested on cGMP-specific 3',5'-cyclic phosphodiesterase (Homo sapiens, UniProt O76074) gave pIC50: 6.70

Value sought: pIC50, system cGMP-specific 3',5'-cyclic phosphodiesterase (Homo sapiens, UniProt O76074), item c1ccc(CCNc2nc(-c3cccnc3)nc3ccccc23)cc1 . Result: 6.27

Value (pIC50, cGMP-specific 3',5'-cyclic phosphodiesterase (Homo sapiens, UniProt O76074)) for record O=c1c(NCC2CCOCC2)nc2ccc(-c3ccc(F)cc3)nc2n1Cc1cccnc1 = 8.60

Form: item CCCOCCn1c(=O)c(NCCN(C)C)nc2cnc(-c3ccc(OC)nc3)cc21 ; test system cGMP-specific 3',5'-cyclic phosphodiesterase (Homo sapiens, UniProt O76074); pIC50: 9.11

Entry Cc1c(NC(=O)c2cccc(COc3ccccc3)n2)cccc1C(=O)NO , cGMP-specific 3',5'-cyclic phosphodiesterase (Homo sapiens, UniProt O76074) data, pIC50 value: 5.58

* * *

// merged dataset of pIC50 values, system = cGMP-specific 3',5'-cyclic phosphodiesterase (Homo sapiens, UniProt O76074), multiple refs
In simple prose, pIC50 is minus the logarithm base ten of a concentration in moles per litre.

Below, 6 compounds whose answers are already recorded.
INSERT INTO measurements (compound, numeric_readout) VALUES
  ('COc1ccc(CNc2c(CO)cnc3c(NCCN(C)C)cc(C#N)cc23)cc1Cl', 8.37),
  ('CC(C)CNc1nc(Nc2ccc(S(=O)(=O)N3CCN(C)CC3)cc2)nc2ccccc12', 6.44),
  ('CCc1nn(CCOCC(F)(F)F)c2c(Nc3ccncn3)nc(N3CCNC(=O)C3)nc12', 8.53),
  ('Cc1nc(C)n(CC(=O)N2CCN(c3sc(C(F)(F)F)nc3-c3nc4ccc(-c5noc(C)n5)cc4[nH]3)C[C@H]2C)n1', 5.06),
  ('COc1ccc(CNc2nc(N3CCC[C@@H]3CO)ncc2C(=O)NCc2ccccn2)cc1Cl', 8.92),
  ('CN1c2ccccc2C(=O)N2CCc3c([nH]c4ccccc34)C21 (centres undefined)', 5.68);

Bench note, cGMP-specific 3',5'-cyclic phosphodiesterase (Homo sapiens, UniProt O76074): entry O=C(O)CCN1CC(=O)N2[C@H](CC3c4ccccc4NC3[C@H]2c2ccc(Br)cc2)C1=O (some centres undefined) , its pIC50 = 8.70

CN(C)CCN1CC(=O)N2[C@H](c3ccc4c(c3)OCO4)c3[nH]c4ccccc4c3C[C@@H]2C1=O tested on cGMP-specific 3',5'-cyclic phosphodiesterase (Homo sapiens, UniProt O76074) gave pIC50: 6.87

// returns pIC50 for CSc1ccccc1-c1nc2c(=O)n(C)c(=O)n(CC(C)C)c2[nH]1 with cGMP-specific 3',5'-cyclic phosphodiesterase (Homo sapiens, UniProt O76074); value = 5.27

// compound Cc1nn(Cc2ccccc2)c(=O)c2nc(/C=C/C(=O)O)n3nc(-c4ccccc4)cc3c12 , assay cGMP-specific 3',5'-cyclic phosphodiesterase (Homo sapiens, UniProt O76074), pIC50 value: 6.49

Measured pIC50 for this entry c1ccc(-c2nc(NCc3ccco3)c3ccccc3n2)cc1 on cGMP-specific 3',5'-cyclic phosphodiesterase (Homo sapiens, UniProt O76074): 5.33

Given the compound CCCOCCn1c(=O)nc(NCC(=O)N(C)C)c2nnc(-c3ccc(OC)nc3)cc21 and test system cGMP-specific 3',5'-cyclic phosphodiesterase (Homo sapiens, UniProt O76074), the measured pIC50 is 9.36

Value sought: pIC50, system cGMP-specific 3',5'-cyclic phosphodiesterase (Homo sapiens, UniProt O76074), item CCCOc1ccc(N)cc1-c1nc2c(c(C)nn2C)c(=O)[nH]1 . Result: 8.00

For CCc1cc(C(C)=O)c(O)cc1OCc1cccc(C(=O)NC(C)C(=O)NO)n1 (centres undefined) on cGMP-specific 3',5'-cyclic phosphodiesterase (Homo sapiens, UniProt O76074), measured pIC50 was 6.46

* * *

Target or system cGMP-specific 3',5'-cyclic phosphodiesterase (Homo sapiens, UniProt O76074); metric pIC50; compiled from varied reports.
Answer as the number alone; pIC50 is minus log10 of concentration in mol/L.

// solved cases for pIC50 follow
INSERT INTO results (compound, test_system, measured_quantity, numeric_readout) VALUES
  ('CCc1nn(CCOCC(F)(F)F)c2c(Nc3ccncn3)nc(N3CCCNCC3)nc12', 'cGMP-specific 3'',5''-cyclic phosphodiesterase (Homo sapiens, UniProt O76074)', 'pIC50', 8.50),
  ('COc1cc2nc(Nc3cccc(S(N)(=O)=O)c3)nc(NC3CCN(Cc4ccccc4)CC3)c2cc1OC', 'cGMP-specific 3'',5''-cyclic phosphodiesterase (Homo sapiens, UniProt O76074)', 'pIC50', 5.79),
  ('CCC(C)c1nc2c(=O)n(Cc3ccccc3)nc(C)c2c2cc(-c3ccccc3)nn12 (stereo unspecified)', 'cGMP-specific 3'',5''-cyclic phosphodiesterase (Homo sapiens, UniProt O76074)', 'pIC50', 7.47);

What the record says about CCOc1ccccc1-c1nc2c(c(C)nn2C)c(=O)[nH]1 : pIC50 is 7.52

Given item Cc1ccc(-c2cc(C(=O)Nc3ccc(S(N)(=O)=O)cc3)c3ccccc3n2)s1 , the value recorded as its pIC50 is 5.20

Form: compound = COc1cc(Br)cc2c1nc(C)c1c(C)nc(-c3cccnc3F)n12 ; pIC50 = 6.22

* * *

Collected IC50 for cGMP-specific 3',5'-cyclic phosphodiesterase (Homo sapiens, UniProt O76074) across several studies; molecules listed below.

Below: 3 molecules and their reported IC50.
INSERT INTO measurements (molecule, measured_quantity, result) VALUES
  ('Cc1cccc(C(=O)Nc2nc(CC(=O)NO)cs2)c1Br', 'IC50', '8.43 µM'),
  ('CCCCN1C(=O)[C@H]2Cc3c([nH]c4ccccc34)[C@H](c3ccc(C#N)cc3)N2C1=O (relative stereo)', 'IC50', '0.302 µM'),
  ('COc1cc(-c2cccnc2)cc2c1nc(C)c1c(C)nc(-c3cccnc3F)n12', 'IC50', '0.0916 µM');

cGMP-specific 3',5'-cyclic phosphodiesterase (Homo sapiens, UniProt O76074) data for CCCOCCn1c(=O)c(N[C@@H](C)CO)nc2cnc(-c3ccc(OC)nc3)cc21 ; its IC50: 0.00024 µM

cGMP-specific 3',5'-cyclic phosphodiesterase (Homo sapiens, UniProt O76074) IC50 of COc1ccc(CN(C)c2nc(OCc3ccccn3)ncc2C(=O)NCc2ccccn2)cc1Cl is 0.085 µM

# value of IC50, cGMP-specific 3',5'-cyclic phosphodiesterase (Homo sapiens, UniProt O76074), item O=c1c2ccccc2oc2c(Cc3ccc(O)cc3)[nH]c(-c3ccncn3)c12 = 0.056 µM

IC50 for cGMP-specific 3',5'-cyclic phosphodiesterase (Homo sapiens, UniProt O76074) with input O=C1[C@H]2Cc3c([nH]c4ccccc34)[C@@H](c3ccc4c(c3)OCO4)N2C(=O)CN1[C@@H]1CCN(CCc2cccnc2)C1 equals 0.0019 µM

Known value: cGMP-specific 3',5'-cyclic phosphodiesterase (Homo sapiens, UniProt O76074) IC50 of the molecule CN1c2cccc(O)c2C(=O)N2CCc3c([nH]c4ccccc34)[C@@H]21 equals > 10 µM

Entry Clc1cccc(Nc2nc(-c3ccccc3)nc3ccccc23)c1 under cGMP-specific 3',5'-cyclic phosphodiesterase (Homo sapiens, UniProt O76074) had IC50 of 1 µM

For the molecule CCCOCCn1c(=O)c(NCC(=O)NC)nc2ncc(-c3ccc(OC)nc3)cc21 , the measured IC50 on cGMP-specific 3',5'-cyclic phosphodiesterase (Homo sapiens, UniProt O76074) was 0.00043 µM
